FYI, the data here is from PubChem BioAssay.

- procedure text: yeast transport mutant growth inhibition pilot in 384-well plates, post-Golgi transport modulator project (AID 636); note: test concentration not given here
- applied conditions: absorbance 615 nm, about 18 h, active compounds read high
measured metric: inhibition (%)
Kindly provide the numeric value in % only, without the unit symbol.

Input: Look up inhibition for this molecule: O=C(Nc1nnc(N2CCCCCC2)s1)c1cc(-c2ccc(Br)cc2)on1
Output: -5.13

Input: Look up inhibition for this molecule: Cc1ccc2oc(=O)c3cnn(CC(=O)NCCC(C)C)c3c2c1
Output: -0.26

Input: Look up inhibition for this molecule: COc1ccc(-n2c(Cc3cccn3C)nnc2SCC(=O)Nc2ccccc2)cc1
Output: -5.87

Input: Look up inhibition for this molecule: C=C(C)Cn1c(N2CC(C)CC(C)C2)nc2c1c(=O)[nH]c(=O)n2C (stereo not given)
Output: -4.93

Input: Look up inhibition for this molecule: COc1ccc(-n2c(Cc3cccn3C)nnc2SCC(=O)Nc2ccc(Cl)cc2)cc1
Output: -0.38
